molecular target: T1, cyno PAI-1 captured on immobilized human vitronectin (cynomolgus monkey; human, UniProt P04004 20-478, limits assumed); experiment: Biacore, cPAI-1 on vitronectin chip, 1:1 model
T1 construct: non-covalent complex formed on the chip; also called cPAI-1/Vn
T1 sequence (chain, as listed by the source limits assumed, chain 1 of 2): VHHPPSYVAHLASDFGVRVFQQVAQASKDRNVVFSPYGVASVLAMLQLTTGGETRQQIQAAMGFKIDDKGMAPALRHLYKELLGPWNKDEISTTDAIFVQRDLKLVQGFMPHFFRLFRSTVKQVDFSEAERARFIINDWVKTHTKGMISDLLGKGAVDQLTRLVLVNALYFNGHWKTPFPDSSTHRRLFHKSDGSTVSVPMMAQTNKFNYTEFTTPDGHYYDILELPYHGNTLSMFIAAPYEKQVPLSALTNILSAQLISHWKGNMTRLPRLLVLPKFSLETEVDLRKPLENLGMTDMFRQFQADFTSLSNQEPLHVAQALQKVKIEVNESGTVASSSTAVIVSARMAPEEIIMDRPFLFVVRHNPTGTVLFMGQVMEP
T1 sequence (P04004 20-478 limits assumed, chain 2 of 2): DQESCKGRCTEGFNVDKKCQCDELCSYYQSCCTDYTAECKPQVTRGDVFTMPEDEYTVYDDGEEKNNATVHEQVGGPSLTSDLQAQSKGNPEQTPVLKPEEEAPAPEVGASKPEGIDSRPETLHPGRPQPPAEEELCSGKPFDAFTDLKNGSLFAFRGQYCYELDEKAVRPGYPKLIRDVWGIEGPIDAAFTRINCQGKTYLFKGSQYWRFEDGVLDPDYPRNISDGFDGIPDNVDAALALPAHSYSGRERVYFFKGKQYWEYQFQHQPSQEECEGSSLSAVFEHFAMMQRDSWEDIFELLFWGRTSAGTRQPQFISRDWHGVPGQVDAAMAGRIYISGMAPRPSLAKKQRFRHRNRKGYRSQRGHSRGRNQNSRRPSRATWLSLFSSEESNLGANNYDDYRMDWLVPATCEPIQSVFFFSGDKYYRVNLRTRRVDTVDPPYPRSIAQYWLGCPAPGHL
So I've got a bunch of binders here, and I need their log10 of koff values.
Plainly stated, the numbers are log10 of koff given in s⁻¹.

Enquiry: Item A44 (antibody, mouse IgG1, V domains shown, mouse IgG1/kappa; also called mA44; A44 parental) VH: EMQLQESGPSLVKPSQTLSLTCSVTGDSMTNGYWNWIRKFPGNKLEYMGYITYSGSTYYNPSLKGRISITRNTSKNQYYLQLSSVTTEDTATYYCARWHYGSPYYFDYWGQGTTLTVSS VL: DIKMTQSPSSMYASLGERVTITCKASQDINSYLSWLQQKPGKSPKTLIYRANRSVDGVPSRFSGSGSGQDYSLTISSLEYEDMGIYYCLQYDEFPPTFGGGTKLEIKR has what recorded log10 of koff?
Return: -3.56

Enquiry: Try A44-hv12 (antibody, V domains shown, humanized A44, HEK293; constant regions as for A44-hv1; also called LC4 x HC3; variant 12) VH: QMTLKESGPTLVKPTQTLSLTCSVSGDSMTNGYWNWIRQFPGKALEYMGYITYSGSTYYNPSLKGRITITRDTSKNQYYLTLSSVTTVDTATYYCARWHYGSPYYFDYWGQGTTLTVSS VL: DIKMTQSPSSLSASVGDRVTITCKASQDINSYLSWLQQKPGKSPKTLIYRAQRSVEGVPSRFSGSGSGQDYSLTISSLQPEDLATYYCLQYDEFPPTFGGGTKLEIK next.
Return: -3.63

Enquiry: Try A44-hv9 (antibody, V domains shown, humanized A44, HEK293; constant regions as for A44-hv1; also called LC5b x HC5b; variant 9) VH: QMQLQESGPGLVKPSETLSLTCTVSGDSMTNGYWNWIRQPPGKGLEYMGYITYSGSTYYNPSLKSRITISRDTSKNQYSLKLSSVTAADTAVYYCARWHYGSPYYFDYWGQGTLVTVSS VL: DIQMTQSPSSLSASVGDRVTITCKASQDINSYLSWLQQKPGKAPKTLIYRANRSVDGVPSRFSGSGSGQDYTFTISSLQPEDIATYYCLQYDEFPPTFGGGTKVEIK next.
Return: -3.87

Enquiry: Try A44-hv5 (antibody, V domains shown, humanized A44, HEK293; constant regions as for A44-hv1; also called LC2 x HC2b; variant 5) VH: EMTLKESGPTLVKPTQTLSLTCSVTGDSMTQGYWNWIRKFPGKALEYMGYITYSGSTYYNPSLKGRISITRNTSKNQYYLTLSSVTTVDTATYYCARWHYGSPYYFDYWGQGTTLTVSS VL: DIKMTQSPSSLSASVGDRVTITCKASQDINSYLSWLQQKPGKSPKTLIYRAQRSVEGVPSRFSGSGSGQDYSLTISSLQPEDLGIYYCLQYDEFPPTFGGGTKLEIK next.
Return: -3.95

Enquiry: Try A44-hv14 (antibody, V domains shown, humanized A44, HEK293; constant regions as for A44-hv1; also called LC4 x HC5b; variant 14) VH: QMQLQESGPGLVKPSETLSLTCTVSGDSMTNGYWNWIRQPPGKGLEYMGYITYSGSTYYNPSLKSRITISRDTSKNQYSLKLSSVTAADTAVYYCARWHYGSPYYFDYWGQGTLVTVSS VL: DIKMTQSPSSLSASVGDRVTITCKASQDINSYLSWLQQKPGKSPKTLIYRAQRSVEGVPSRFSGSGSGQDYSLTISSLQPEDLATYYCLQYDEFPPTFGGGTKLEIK next.
Return: -3.67

Enquiry: Try A44-hv6 (antibody, V domains shown, humanized A44, HEK293; constant regions as for A44-hv1; also called LC3 x HC3; variant 6) VH: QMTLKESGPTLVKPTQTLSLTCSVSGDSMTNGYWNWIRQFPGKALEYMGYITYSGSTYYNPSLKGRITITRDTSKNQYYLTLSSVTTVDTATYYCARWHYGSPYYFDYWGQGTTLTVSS VL: DIKMTQSPSSLSASVGDRVTITCKASQDINSYLSWLQQKPGKSPKTLIYRANRSVDGVPSRFSGSGSGQDYSLTISSLQPEDLATYYCLQYDEFPPTFGGGTKLEIK next.
Return: -4.60
